# Assayed system: PLK1 (Homo sapiens)
# Sequence (P53350 whole entry): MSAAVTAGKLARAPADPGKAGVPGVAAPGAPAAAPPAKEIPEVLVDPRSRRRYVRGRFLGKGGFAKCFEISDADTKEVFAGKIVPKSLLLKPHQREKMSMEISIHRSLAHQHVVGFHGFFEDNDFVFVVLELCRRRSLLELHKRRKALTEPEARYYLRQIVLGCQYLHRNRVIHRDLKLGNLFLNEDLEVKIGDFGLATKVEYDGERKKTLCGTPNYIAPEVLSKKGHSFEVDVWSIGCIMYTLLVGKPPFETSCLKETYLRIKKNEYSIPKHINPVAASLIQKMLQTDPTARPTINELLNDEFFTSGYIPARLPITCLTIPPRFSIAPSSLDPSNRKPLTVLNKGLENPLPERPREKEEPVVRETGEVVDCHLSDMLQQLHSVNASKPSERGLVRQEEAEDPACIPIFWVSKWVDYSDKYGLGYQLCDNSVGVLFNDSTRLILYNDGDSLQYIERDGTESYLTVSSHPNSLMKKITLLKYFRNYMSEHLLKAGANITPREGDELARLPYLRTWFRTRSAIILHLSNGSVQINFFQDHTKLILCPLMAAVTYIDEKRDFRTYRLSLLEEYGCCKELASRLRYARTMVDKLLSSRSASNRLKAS
# Assay info: Cellular PLK1 assay in K562 cells overexpressing CDC25C
# Assay type: cell-based
# Design: endogenous in cells; host or cells: K562 (human chronic myelogenous leukemia) overexpressing CDC25C, nocodazole-arrested
# Stated conditions: nocodazole arrested, cdc25c p-Ser198 readout
Measured metric: IC50

| Compound | Reported |
| --- | --- |
| Cc1cnc(Nc2cccc(N3CCN(C)CC3)c2)nc1Nc1ccc2c(n1)N(Cc1ccccc1)C(=O)CO2 | 0.5 to 5 µM |
| CN1CCN(c2cccc(Nc3ncc(F)c(Nc4ccc5c(n4)N(CC4CCCCC4)C(=O)CO5)n3)c2)CC1 | ≥ 10 µM |
| CN1CC2CC1CN2c1cccc(Nc2ncc(F)c(Nc3ccc4c(n3)NCCO4)n2)c1 (stereo not shown) | < 0.5 µM |
| CC(C)c1cc(Nc2ncc(F)c(Nc3ccc4c(n3)NCCO4)n2)cc(N2CCN(C)CC2)c1 | 0.5 to 5 µM |
| CN1CCN(c2cccc(Nc3ncc(F)c(N(c4ccc5c(n4)NCCO5)C4CCCC4)n3)c2)CC1 | ≥ 10 µM |
| COc1ccc(CN2C(=O)COc3ccc(Nc4nc(Nc5ccc(N6CCN(C)CC6)c(C)c5)ncc4C)nc32)cc1 | 0.5 to 5 µM |
| CN1CCN(c2cc(Nc3ncc(F)c(Nc4ccc5c(n4)NCCO5)n3)cc(C3CC3)c2)CC1 | < 0.5 µM |
